# literature pull: UniProt P00742 pIC50
pIC50: −log10 of the molar value.

# count of solved cases: 6
| compound | assayed target | pIC50 |
| --- | --- | --- |
| CC(C)Nc1ncc(-c2cc(N)cc(C(F)(F)F)c2)n(CC(=O)NCc2ccc(C(=N)N)c(O)c2)c1=O | UniProt P00742 | < 4.52 |
| COc1ccc(S(=O)(=O)N[C@H]2CCCCN(CC(=O)NCC3CCN(C(=N)N)CC3)C2=O)cc1OC | UniProt P00742 | ≤ 5.60 |
| CN1CN2C3(CCN(c4ccncc4)CC3)CN3C(=O)CN(S(=O)(=O)c4ccc5cc(Cl)ccc5c4)CC32C1 (racemic) | UniProt P00742 | 8.40 |
| CC(C)Cc1ccc(C(C)CNC(=N)C(C)c2ccc(CC(C)C)cc2)cc1 (centres unmarked) | UniProt P00742 | < 3.70 |
| N=C(N)c1cccc(NC(C(=O)Nc2ccc(N3CCOCC3)cc2)c2ccccc2)c1 (centres unmarked) | UniProt P00742 | 7.47 |
| CCCC(Oc1ccc2ccnc(N)c2c1)C(=O)Nc1ccc(N2CCCCC2=O)cc1 (centres unmarked) | UniProt P00742 | 6.46 |

Return reported pIC50; argument: CC(C)Nc1ncc(-c2cc(N)cc(C(=O)NC(C)c3ccccc3)c2)n(CC(=O)NCc2ccc(C(=N)N)cc2)c1=O (racemic) < 4.52

Now this one: Nc1cccc(-c2c(Cl)nc(NC3CCC3)c(=O)n2CC(=O)NCc2ccc3ccnc(N)c3c2)c1 < 4.52

###

# literature pull: UniProt:P00742 IC50

| smiles structure | result |
| --- | --- |
| CC[C@@H](C)NC(=O)c1cc(N)cc(-c2cnc(NC(C)C)c(=O)n2CC(=O)NCc2ccc(C(=N)N)cc2)c1 | > 30 µM |
| CCC(=O)c1ccc(Cl)cc1-c1cc(=O)n([C@@H](Cc2ccccc2)C(=O)Nc2ccc(C(=O)O)cc2)nc1OC | > 100 µM |

Okay, next one:
Identify the measured IC50 of N=C(N)c1ccc(CNC(=O)CN2CCCC[C@H](NS(=O)(=O)c3ccc4ccccc4c3)C2=O)cc1 for UniProt:P00742. ≥ 2.5 µM

###

# literature pull: Coagulation factor X (Homo sapiens) pIC50
pIC50: −log10 of the molar value.
assay metric: pIC50

# count of solved cases: 10
| compound | pIC50 |
| --- | --- |
| CC(C)CCC(=O)N[C@@H](CC(=O)O)C(=O)N1CCC[C@H]1C(=O)N[C@H](C=O)CCCNC(=N)N | 7.13 |
| N=C(N)c1ccc2ccc(CN3C(=O)COc4ccc(-c5ccccc5S(N)(=O)=O)cc43)cc2c1 | 7.17 |
| N=C(N)c1cc2cc(OC(=O)c3ccoc3)ccc2o1 | 5.80 |
| CC(C)(CO)N1CCc2nc(C(=O)N[C@@H]3CC(CO)C[C@H]3NC(=O)c3cc4cc(Cl)ccc4[nH]3)sc2C1 (single isomer, unassigned; stereoisomer b) | 8.57 |
| O=C(Nc1ccc(Br)cc1)N1CCCN1C(=O)Nc1ccc(-n2ccccc2=O)cc1 | 7.26 |
| CC(=N)N1CCC(Oc2ccc3c(c2)OCC(=O)N3Cc2cc3ccc(C(=N)N)cc3n2C)CC1 | 8.70 |
| CCn1c(Cn2c(=O)ccc3cc(OC4CCN(C(C)=N)CC4)ccc32)cc2ccc(C(=N)NN)cc21 | 6.29 |
| O=C(Nc1ccc(Cl)cc1)N[C@@H](C(=O)N1CCN(c2ccc(F)cc2)CC1)c1ccccc1 | 6.17 |
| CC(C)CNC(=O)N(CCOCC(=O)O)c1ccc(N2C[C@H](CNC(=O)c3ccc(Cl)s3)OC2=O)cc1 | 7.23 |
| Cc1nnc([C@H]2CC[C@H](NC(=O)C(=O)Nc3ccc(Cl)s3)[C@H](NC(=O)c3nc4c(s3)CN(C)CC4)C2)o1 | 9.14 |

(a) O=C(NCCc1ccccn1)c1cccc(NS(=O)(=O)c2ccc3ccccc3c2)c1
(b) COCC12CN(S(=O)(=O)c3cc4cc(Cl)ccc4[nH]3)CC(=O)N1CC1(CCN(C(=O)C3CCC3)CC1)N2C (single isomer, unassigned; (-))
Which gives the smaller pIC50 number: a or b ? Please respond with the label that marks your chosen entry. a

(A) CN1CCc2nc(C(=O)N[C@@H]3C[C@@H](CO)CC[C@H]3NC(=O)c3cc4cc(Cl)ccc4[nH]3)sc2C1
(B) O=C(NC[C@H]1CN(c2ccc(N3CCOCC3=O)cc2F)C(=O)O1)c1ccc(Cl)s1
Lab notebook, comparison: A versus B , higher pIC50 goes to which? Please respond with the label that marks your chosen entry. B
(B: 9.05, A: 8.48)

(1) CCSCCNC(=O)C1CN(S(=O)(=O)c2ccc3cc(Br)ccc3c2)CCN1C(=O)C1CCN(c2ccncc2)CC1 (stereo not drawn)
(2) O=C1CN(S(=O)(=O)c2cc3ccc(Cl)cc3s2)CC2OC3(CCN(c4ccncc4)CC3)CN12 (stereo not drawn)
Lab notebook, comparison: 1 versus 2 , higher pIC50 goes to which? Please respond with the label that marks your chosen entry. 2
(2: 9.22, 1: 8.40)

###

# literature pull: Coagulation factor X (Homo sapiens) pIC50
pIC50: −log10 of the molar value.

# count of solved cases: 7
| compound | assayed target | result |
| --- | --- | --- |
| O=C(Cc1c(F)ccc(NS(=O)(=O)Cc2ccccc2)c1F)NCCCn1ccnc1 | Coagulation factor X (Homo sapiens) | < 4.52 |
| CCC(C)[C@H](NC(=O)c1cc(N)cc(-c2cnc(NC(C)C)c(=O)n2CC(=O)NCc2ccc(C(=N)N)cc2)c1)C(=O)O (some centres unmarked) | Coagulation factor X (Homo sapiens) | < 4.52 |
| Cc1ncc(CO)c(CNc2ccc(-c3ccccc3S(N)(=O)=O)cc2)c1O | Coagulation factor X (Homo sapiens) | < 3.00 |
| CC(C)Nc1ncc(-c2cc(N)cc(C(=O)NC(C)(CO)CO)c2)n(CC(=O)NCc2ccc(C(=N)N)cc2)c1=O | Coagulation factor X (Homo sapiens) | < 4.52 |
| O=C(NCc1ccncc1)c1cc(NS(=O)(=O)Cc2ccccc2)ccc1Sc1ccccc1 | Coagulation factor X (Homo sapiens) | < 4.52 |
| C#CCOC(=O)N(CC)Nc1ncc(C)n(CC(=O)NCc2ccc(N)nc2C)c1=O | Coagulation factor X (Homo sapiens) | ≤ 4.00 |
| CC(C)CSc1cc(N)cc(-c2cnc(NC(C)C)c(=O)n2CC(=O)NCc2ccc(C(=N)N)cc2)c1 | Coagulation factor X (Homo sapiens) | < 4.52 |

Okay, next one:
Return reported pIC50; argument: COc1ccc(S(=O)(=O)NNc2ncc(C)n(CC(=O)NCc3ccc(N)nc3C)c2=O)cc1 4.00 to 5.60

###

# literature pull: Coagulation factor X (Homo sapiens) IC50

# count of solved cases: 6
| smiles structure | assayed target | IC50 |
| --- | --- | --- |
| CC(C)COc1cc(N)cc(-c2cnc(NC(C)C)c(=O)n2CC(=O)NCc2ccc(C(=N)N)cc2)c1 | Coagulation factor X (Homo sapiens) | > 30 µM |
| CC(C)CNC(=O)c1cc(N)cc(-c2cnc(NC(C)C)c(=O)n2CC(=O)NCc2ccc(C(=N)N)cc2)c1 | Coagulation factor X (Homo sapiens) | > 30 µM |
| CC(C)Nc1ccc(-c2cc(N)cc(C(=O)O)c2)c(CC(=O)NCc2ccc(C(=N)N)cc2)[n+]1[O-] | Coagulation factor X (Homo sapiens) | > 100 µM |
| CSc1ccc(N)cc1-c1c(Cl)nc(NC(C)C)c(=O)n1CC(=O)NCc1ccc(C(=N)N)cc1 | Coagulation factor X (Homo sapiens) | > 30 µM |
| COc1ccc(OC)c(S(=O)(=O)N[C@H]2CCCCN(CC(=O)NCc3ccc(C(=N)N)cc3)C2=O)c1 | Coagulation factor X (Homo sapiens) | ≥ 2.5 µM |
| CC(C)Nc1ncc(-c2cc(N)cc(C(F)(F)F)c2)n(CC(=O)NCc2c(F)c(O)c(C(=N)N)c(F)c2F)c1=O | Coagulation factor X (Homo sapiens) | > 30 µM |

Return reported IC50; argument: CC(C)Nc1ncc(-c2cc(N)cc(C(=O)NCCN3CCOCC3)c2)n(CC(=O)NCc2ccc(C(=N)N)cc2)c1=O > 30 µM

Now this one: CN1CCC(CCCNC(=O)Cn2c(=O)c(NS(=O)(=O)Cc3ccccc3)cc3ccccc32)CC1 > 30 µM

Now this one: COCCNC(=O)c1cc(N)cc(-c2cnc(NC(C)C)c(=O)n2CC(=O)NCc2ccc(C(=N)N)cc2)c1 > 30 µM

Now this one: CNc1ncc(-c2cc(N)cc(C(=O)OC)c2)n(CC(=O)NCc2ccc(C(=N)N)cc2)c1=O > 30 µM

Now this one: COC(=O)c1cc(N)cc(-c2ncc(NC(C)C)c(=O)n2CC(=O)NCc2ccc(C(=N)N)cc2)c1 > 30 µM

Now this one: CC(C)Nc1ncc(-c2cc(N)cc(N)c2)n(CC(=O)NCc2ccc(C(=N)N)s2)c1=O < 30 µM
